target: UniProt P31390
Sequence (P31390 whole entry): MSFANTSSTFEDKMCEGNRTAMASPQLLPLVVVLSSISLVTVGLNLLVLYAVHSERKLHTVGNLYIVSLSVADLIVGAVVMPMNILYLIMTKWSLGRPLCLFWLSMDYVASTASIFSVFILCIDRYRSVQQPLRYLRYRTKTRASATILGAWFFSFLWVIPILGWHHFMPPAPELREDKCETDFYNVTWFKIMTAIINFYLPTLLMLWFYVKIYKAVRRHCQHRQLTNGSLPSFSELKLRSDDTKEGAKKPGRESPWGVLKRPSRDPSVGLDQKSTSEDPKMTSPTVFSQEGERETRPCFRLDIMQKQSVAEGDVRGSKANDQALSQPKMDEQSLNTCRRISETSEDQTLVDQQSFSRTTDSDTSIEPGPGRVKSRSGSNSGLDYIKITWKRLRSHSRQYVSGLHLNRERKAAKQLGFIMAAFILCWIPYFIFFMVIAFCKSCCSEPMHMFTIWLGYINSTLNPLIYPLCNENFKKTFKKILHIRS
Just a reminder that ties go to condition not met: only Ki strictly below 300 nM counts as condition met.

Take a look at these entries with their results.
compound	group.label
CC(=O)C1CCC(=C2c3ccc(Cl)cc3CCc3cccnc32)CC1 (stereo not drawn)	condition not met
CC(=O)N1CCC(=C2c3ccc(C)cc3CCc3cccnc32)CC1	condition met
CC(=O)N1CCC(=C2c3cc(Cl)ccc3CCc3cccnc32)CC1	condition not met
CC(=O)N1CCC(=C2c3cc(F)c(F)cc3CCc3cccnc32)CC1	condition not met
COc1ccc2c(c1)CCc1cccnc1C2=C1CCN(C(C)=O)CC1	condition not met

QUERY: Please state whether Ki is below 300 nM for "CCC(=O)N1CCC(=C2c3ccc(Cl)cc3CCc3cccnc32)CC1"
RESULT: condition met

QUERY: Next: "CC(=O)N(C)CC/C=C1\c2ccc(Cl)cc2CCc2cccnc21"
RESULT: condition met

QUERY: Next: "O=C(c1ccccc1)N1CCC(=C2c3ccc(Cl)cc3CCc3cccnc32)CC1"
RESULT: condition met

From: ChEMBL document CHEMBL1125750
